Values compiled from ChEMBL document CHEMBL3881527.

- test_target: Receptor tyrosine-protein kinase erbB-2 (Homo sapiens)
- Sequence (P04626 whole entry): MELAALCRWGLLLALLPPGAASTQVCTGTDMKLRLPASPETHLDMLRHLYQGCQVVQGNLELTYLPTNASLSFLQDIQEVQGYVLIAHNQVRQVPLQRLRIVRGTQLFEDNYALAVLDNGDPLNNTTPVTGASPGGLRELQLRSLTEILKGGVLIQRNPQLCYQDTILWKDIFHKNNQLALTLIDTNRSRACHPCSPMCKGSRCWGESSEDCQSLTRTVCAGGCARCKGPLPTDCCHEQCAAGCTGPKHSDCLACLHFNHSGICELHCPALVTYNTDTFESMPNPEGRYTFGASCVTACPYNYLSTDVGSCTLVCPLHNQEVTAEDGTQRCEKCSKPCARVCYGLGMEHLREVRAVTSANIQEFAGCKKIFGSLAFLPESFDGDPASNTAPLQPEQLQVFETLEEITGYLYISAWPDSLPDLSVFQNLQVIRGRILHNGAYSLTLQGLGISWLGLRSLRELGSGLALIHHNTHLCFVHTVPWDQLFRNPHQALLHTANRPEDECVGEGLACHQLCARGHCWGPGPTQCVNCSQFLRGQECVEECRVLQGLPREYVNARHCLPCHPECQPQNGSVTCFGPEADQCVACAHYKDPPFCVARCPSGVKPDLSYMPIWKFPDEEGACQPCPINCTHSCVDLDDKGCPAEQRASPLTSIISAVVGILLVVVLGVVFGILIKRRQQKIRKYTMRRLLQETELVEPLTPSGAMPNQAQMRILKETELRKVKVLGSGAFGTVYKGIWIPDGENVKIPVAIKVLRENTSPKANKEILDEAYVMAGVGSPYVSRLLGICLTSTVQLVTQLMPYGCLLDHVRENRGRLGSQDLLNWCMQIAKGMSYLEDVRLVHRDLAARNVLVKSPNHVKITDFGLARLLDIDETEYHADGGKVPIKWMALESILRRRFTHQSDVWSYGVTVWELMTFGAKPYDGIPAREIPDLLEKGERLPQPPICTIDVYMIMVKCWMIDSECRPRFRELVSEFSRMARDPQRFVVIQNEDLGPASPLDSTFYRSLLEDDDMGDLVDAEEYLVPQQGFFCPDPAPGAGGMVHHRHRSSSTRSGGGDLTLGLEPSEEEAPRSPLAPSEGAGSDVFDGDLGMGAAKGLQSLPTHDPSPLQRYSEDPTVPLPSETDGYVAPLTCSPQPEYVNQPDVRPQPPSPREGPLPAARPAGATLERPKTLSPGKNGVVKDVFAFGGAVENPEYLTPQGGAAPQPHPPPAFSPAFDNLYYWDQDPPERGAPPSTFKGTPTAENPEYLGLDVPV
- assay_info: Inhibition of N-terminal GST-tagged human HER2 (Lys676 to Val1255 residues) expressed in baculovirus expression system using biotinylated FLT3 at Tyr589 as substrate preincubated for 5 mins followed by substrate addition measured after 30 mins by DELFIA method
The following molecules are shown together with reported IC50 values.

smiles_entry | test_target | property_label | reported_value
C[C@@H](Nc1ncnc2[nH]c(-c3ccc(NCCCCCC(=O)NO)cc3)cc12)c1ccccc1 | Receptor tyrosine-protein kinase erbB-2 (Homo sapiens) | IC50 | ≤ 100 nM
C[C@@H](Nc1ncnc2[nH]c(-c3ccc(CN4CCN(CCCCC(=O)NO)CC4)cc3)cc12)c1ccccc1 | Receptor tyrosine-protein kinase erbB-2 (Homo sapiens) | IC50 | 100 to 1000 nM
O=C(CCCCCN1CCN(Cc2ccc(-c3cc4c(NCc5ccccc5)ncnc4[nH]3)cc2)CC1)NO | Receptor tyrosine-protein kinase erbB-2 (Homo sapiens) | IC50 | 100 to 1000 nM

Now turn to the next molecule.
Inquiry: I'd like to know its IC50. The molecule in question is C[C@@H](Nc1ncnc2[nH]c(-c3ccc(CN4CCN(CCCCCC(=O)NO)CC4)cc3)cc12)c1ccccc1
Reply text: 100 to 1000 nM

====

- test_target: UniProtKB P35968
- Sequence (P35968 whole entry, the tested form may be a part): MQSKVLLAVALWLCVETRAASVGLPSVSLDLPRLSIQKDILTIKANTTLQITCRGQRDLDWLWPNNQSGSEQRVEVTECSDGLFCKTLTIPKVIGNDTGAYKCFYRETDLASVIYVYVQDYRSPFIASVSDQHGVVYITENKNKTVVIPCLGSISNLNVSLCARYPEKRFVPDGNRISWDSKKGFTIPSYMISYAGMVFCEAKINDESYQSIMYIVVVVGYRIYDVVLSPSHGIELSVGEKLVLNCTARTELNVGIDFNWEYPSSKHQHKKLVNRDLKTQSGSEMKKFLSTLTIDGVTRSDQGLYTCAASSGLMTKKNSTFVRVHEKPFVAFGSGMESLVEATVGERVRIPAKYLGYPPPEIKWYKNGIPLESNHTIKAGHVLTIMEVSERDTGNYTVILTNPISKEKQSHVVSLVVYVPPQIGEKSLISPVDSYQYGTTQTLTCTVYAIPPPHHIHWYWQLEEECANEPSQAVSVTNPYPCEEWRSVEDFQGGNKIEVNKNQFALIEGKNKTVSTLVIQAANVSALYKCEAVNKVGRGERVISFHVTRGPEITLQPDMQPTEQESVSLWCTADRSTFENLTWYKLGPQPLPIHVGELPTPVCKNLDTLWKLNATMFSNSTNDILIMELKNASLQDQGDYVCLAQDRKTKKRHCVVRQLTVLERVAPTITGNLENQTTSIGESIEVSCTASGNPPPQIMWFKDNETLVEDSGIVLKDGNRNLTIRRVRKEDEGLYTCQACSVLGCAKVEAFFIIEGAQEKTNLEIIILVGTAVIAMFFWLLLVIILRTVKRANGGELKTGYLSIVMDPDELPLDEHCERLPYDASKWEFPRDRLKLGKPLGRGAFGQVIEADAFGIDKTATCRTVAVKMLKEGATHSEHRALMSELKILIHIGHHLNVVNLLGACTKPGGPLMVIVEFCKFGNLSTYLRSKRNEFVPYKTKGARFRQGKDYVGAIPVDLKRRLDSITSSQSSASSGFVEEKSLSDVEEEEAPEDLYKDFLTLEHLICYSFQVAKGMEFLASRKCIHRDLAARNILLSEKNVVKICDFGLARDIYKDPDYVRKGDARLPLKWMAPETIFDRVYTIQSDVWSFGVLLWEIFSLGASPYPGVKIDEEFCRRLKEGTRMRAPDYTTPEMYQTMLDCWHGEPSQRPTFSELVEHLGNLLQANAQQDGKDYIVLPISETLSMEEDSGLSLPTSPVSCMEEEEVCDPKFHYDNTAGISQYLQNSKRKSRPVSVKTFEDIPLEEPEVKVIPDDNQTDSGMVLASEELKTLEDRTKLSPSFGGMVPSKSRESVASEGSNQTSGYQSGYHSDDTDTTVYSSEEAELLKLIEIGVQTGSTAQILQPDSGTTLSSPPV
- assay_info: Inhibition of N-terminal GST-His6-thrombin cleavage site-fused human VEGFR2 (Asp805 to Val1356 residues) expressed in baculovirus expression system using biotinylated gastrin precursor at Tyr87 as substrate preincubated for 5 mins followed by substrate addition measured after 30 mins by DELFIA method
Listed molecules paired with reported IC50

smiles_entry | IC50
C[C@@H](Nc1ncnc2[nH]c(-c3ccc(C(=O)NO)cc3)cc12)c1ccccc1 | 100 to 1000 nM
C[C@@H](Nc1ncnc2[nH]c(-c3ccc(CNCCCCCC(=O)NO)cc3)cc12)c1ccccc1 | 100 to 1000 nM
C[C@@H](Nc1ncnc2[nH]c(-c3ccc(NCc4ccc(C(=O)NO)cc4)cc3)cc12)c1ccccc1 | 1000 to 10000 nM
Cc1[nH]c(/C=C2\C(=O)Nc3ccc(F)cc32)c(C)c1C(=O)NCCCCCC(=O)NO | ≤ 100 nM
C[C@@H](Nc1ncnc2[nH]c(-c3ccc(C(=O)NCCNCCC(=O)NO)cc3)cc12)c1ccccc1 | 100 to 1000 nM
C[C@@H](Nc1ncnc2[nH]c(-c3ccc(NCCCCCC(=O)NO)cc3)cc12)c1ccccc1 | ≤ 100 nM

Inquiry: Consider the molecule C[C@@H](Nc1ncnc2[nH]c(-c3ccc(OCCNCCCCCCC(=O)NO)cc3)cc12)c1ccccc1 and give its measured IC50.
Reply text: ≤ 100 nM

Inquiry: # query: IC50 of entry O=C(Nc1ccc(Oc2ccnc(C(=O)NO)c2)cc1)Nc1ccc(Cl)c(C(F)(F)F)c1
Reply text: 1000 to 10000 nM

Inquiry: Given the molecule O=C(CCCCC(=O)NCc1cc(Oc2ccc(NC(=O)Nc3ccc(Cl)c(C(F)(F)F)c3)cc2)ccn1)NO , what is its reported IC50?
Reply text: ≤ 100 nM

Inquiry: Sample C[C@@H](Nc1ncnc2[nH]c(-c3ccc(OCCCCC(=O)NO)cc3)cc12)c1ccccc1 — what was its IC50?
Reply text: 100 to 1000 nM

Inquiry: Param item = O=C(CCCCCCC(=O)NCc1cc(Oc2ccc(NC(=O)Nc3ccc(Cl)c(C(F)(F)F)c3)cc2)ccn1)NO ; retrieve measured IC50.
Reply text: ≤ 100 nM

Inquiry: So what's the measured IC50 for this one? O=C(CCCCCCCNCc1cc(Oc2ccc(NC(=O)Nc3ccc(Cl)c(C(F)(F)F)c3)cc2)ccn1)NO
Reply text: 100 to 1000 nM

Inquiry: Would you mind telling me what IC50 value was observed for C[C@@H](Nc1ncnc2[nH]c(-c3ccc(NCCCCCCC(=O)NO)cc3)cc12)c1ccccc1 ?
Reply text: 100 to 1000 nM
